Overview of reported kon across a group of binders:
Molecular target: T1, Human VE-PTP (HPTP-β) containing first eight FN3 repeats with C-terminal His6 tag (Human ½ VE-PTP ECD) (human, UniProt P23467 23-820)
T1 construct: Produced in HEK293 cells and purified by the His tag; it was not cut off; also called Human Beta ½ ECD
T1 sequence: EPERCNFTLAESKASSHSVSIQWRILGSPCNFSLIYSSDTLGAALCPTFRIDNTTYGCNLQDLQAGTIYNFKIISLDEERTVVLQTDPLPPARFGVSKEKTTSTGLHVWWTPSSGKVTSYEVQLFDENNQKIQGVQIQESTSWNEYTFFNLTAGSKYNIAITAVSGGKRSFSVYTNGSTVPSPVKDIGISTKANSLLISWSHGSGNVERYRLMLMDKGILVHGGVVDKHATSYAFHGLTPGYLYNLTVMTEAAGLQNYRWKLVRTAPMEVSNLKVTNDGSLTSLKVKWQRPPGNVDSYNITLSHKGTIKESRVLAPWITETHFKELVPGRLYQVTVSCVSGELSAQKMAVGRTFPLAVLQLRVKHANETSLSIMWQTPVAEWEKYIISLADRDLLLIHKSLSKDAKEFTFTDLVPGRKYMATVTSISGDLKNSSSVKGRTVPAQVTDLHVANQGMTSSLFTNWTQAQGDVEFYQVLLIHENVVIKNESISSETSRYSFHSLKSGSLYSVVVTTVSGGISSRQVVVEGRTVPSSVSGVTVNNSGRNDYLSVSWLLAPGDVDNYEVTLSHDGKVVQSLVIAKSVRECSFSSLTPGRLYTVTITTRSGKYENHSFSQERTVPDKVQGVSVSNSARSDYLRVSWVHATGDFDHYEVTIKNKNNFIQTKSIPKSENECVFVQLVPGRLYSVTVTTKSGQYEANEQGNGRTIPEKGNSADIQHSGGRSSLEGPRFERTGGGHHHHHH
Assay: SPR (Biacore 3000), antibody captured on anti-human IgG, antigen as analyte 25-0 nM
Experimental: Samples of each variant were further assessed by Biacore analysis to determine the binding affinity. Antibody binding experiments were performed on Biacore 3000™ at 25° C. Assay buffer: 10 mM HEPES buffer (pH 7.4), 150 mM NaCl, 3 mM EDTA, 0.05% P20 (polyoxyethylenesorbitan). […] Conjugation buffer: 10 mM sodium acetate buffer (pH 5). […] Binding of the antigen to the antibodies was monitored in real time. The KD was determined from the observed kₒₙ and koff values.
Recorded Metric: kon (M⁻¹ s⁻¹)

- humanized R15E6 variant HC2LC3 (antibody, human IgG4 S228P, kappa, V domains shown, Human IgG4 (S228P) / kappa, expressed in CHO cells; Signal peptides left out by range; also called VH2-VL3) VH: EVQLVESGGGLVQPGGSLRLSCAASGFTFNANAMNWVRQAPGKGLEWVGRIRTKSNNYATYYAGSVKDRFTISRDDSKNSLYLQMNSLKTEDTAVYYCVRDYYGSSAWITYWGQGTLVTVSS VL: DIQMTQSPFSLSASVGDRVTITCKASQHVGTAVAWYQQKPGKAPKLLIYWASTRHTGVPSRFSGSGSGTDFTLTISSLQPEDFATYFCQQYSSYPFTFGGGTKLEIKR: 890000
- humanized R15E6 variant HC3LC4 (antibody, human IgG4 S228P, kappa, V domains shown, Human IgG4 (S228P) / kappa, expressed in CHO cells; Signal peptides left out by range; also called VH3-VL4) VH: EVQLVESGGGLVQPGRSLRLSCTASGFTFNANAMNWVRQAPGKGLEWVGRIRTKSNNYATYYAGSVKDRFTISRDDSKNIAYLQMNSLKTEDTAVYYCVRDYYGSSAWITYWGQGTLVTVSS VL: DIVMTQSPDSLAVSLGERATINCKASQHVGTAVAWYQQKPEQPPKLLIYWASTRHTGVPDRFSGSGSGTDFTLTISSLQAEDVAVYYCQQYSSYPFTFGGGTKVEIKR: 134000
- humanized R15E6 variant HC2LC2 (antibody, human IgG4 S228P, kappa, V domains shown, Human IgG4 (S228P) / kappa, expressed in CHO cells; Signal peptides left out by range; also called VH2-VL2) VH: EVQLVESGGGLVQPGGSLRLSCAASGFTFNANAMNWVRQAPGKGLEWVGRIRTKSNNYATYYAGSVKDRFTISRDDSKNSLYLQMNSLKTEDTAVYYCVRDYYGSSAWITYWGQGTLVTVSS VL: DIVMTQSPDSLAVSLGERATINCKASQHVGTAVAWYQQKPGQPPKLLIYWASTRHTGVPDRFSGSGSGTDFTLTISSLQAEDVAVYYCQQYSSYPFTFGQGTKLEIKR: 42500
- humanized R15E6 variant HC3LC2 (antibody, human IgG4 S228P, kappa, V domains shown, Human IgG4 (S228P) / kappa, expressed in CHO cells; Signal peptides left out by range; also called VH3-VL2) VH: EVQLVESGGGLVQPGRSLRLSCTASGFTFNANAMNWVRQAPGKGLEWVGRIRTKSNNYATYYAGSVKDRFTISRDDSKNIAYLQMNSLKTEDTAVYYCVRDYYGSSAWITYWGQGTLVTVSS VL: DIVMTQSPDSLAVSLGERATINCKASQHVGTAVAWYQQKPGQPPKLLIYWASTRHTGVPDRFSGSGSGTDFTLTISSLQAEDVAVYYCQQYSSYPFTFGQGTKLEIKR: 53900

Reference source for all entries: patent US20190077863A1
